System: MOLT-4
Experiment: NCI tumour cell line growth inhibition, 48 h
Calls of active or inactive are those of the source. Cut-off read from the data, not from the text of the source: active = GI50 up to about 1.1 µM and inactive = higher.
Form entry, call: pick from active, inactive

Some solved cases for reference:
molecule	answer.label
CCOP(=O)(CCC(O)CNc1nc(N)nc(Cl)c1/N=N/c1ccc(Cl)cc1)OCC (stereo unspecified)	inactive
S=C(N/N=C\c1ccccn1)N(Cc1ccccn1)Cc1ccccn1	active
CC(C)c1ccc(NC(=S)NC(=O)c2ccccc2)cc1	inactive

Incoming: Which outcome was entered for the molecule O=S(=O)(c1cccc(C(F)(F)F)c1)N1c2ccccc2-n2cccc2C1c1cccnc1 (stereo unspecified) in this test?
Outgoing: inactive

Incoming: Which outcome was entered for the molecule COc1ccc(/C=C/C(=O)C(C)(C)Br)cc1 in this test?
Outgoing: inactive

Incoming: Which outcome was entered for the molecule O=C1c2ccccc2-c2c1c(-c1ccccc1)c1n2C2(C(=O)c3ccccc3C2=O)C2C(=O)N(c3ccccc3)C(=O)C12 (stereo unspecified) in this test?
Outgoing: inactive
